# testDetails: Drug level in C57BL/6J mouse liver at 100 mg/kg/day, ip dosed for 5 days
# Assay type: ADME, organism-based
# Design: route intraperitoneal
# conditionSet: read-out: Drug uptake
measurementKind: concentration at 120 h (ng/g)
Return type: number; implicit unit ng/g.

q: Any idea what its concentration at 120 h is? The molecule is `Cc1nnc([C@](F)([C@H]2Cc3[nH]c4ccc(Cl)cc4c3C2)S(=O)(=O)c2ccccc2)o1`
a: 13200

----------
# testDetails: Drug level in C57BL/6J mouse liver at 40 mg/kg/day, ip dosed for 5 days
# Type: ADME, organism-based
# Parameters: route intraperitoneal
# conditionSet: read-out: Drug uptake
measurementKind: concentration at 120 h (ng/g)
Return type: number; implicit unit ng/g.

q: Any idea what its concentration at 120 h is? The compound is `Cc1nnc([C@](F)([C@H]2Cc3[nH]c4ccc(Cl)cc4c3C2)S(=O)(=O)c2ccccc2)o1`
a: 5490
